Entry source: PubChem BioAssay AID330

// values below are reported T/C
# Test system: P388 leukemia ip, CD2F1 mice, survival T/C
# assay comment: NCI In Vivo Anticancer Drug Screen. Data for tumor model P388 Leukemia (intraperitoneal) in CD2F1 (CDF1) mice
# condition label: endpoint: median survival time; dose: 100.0 mg/kg/injection; schedule: Q01DX009 (ip); vehicle: Klucel (hydroxypropylcellulose) (HPC); higher = longer survival
Toxic doses and inconclusive results are not listed.

For orientation, consider the following solved cases.
- molecule: "C1CSCCSCCSCCSCCSCCS1"
  T/C: "102 % of control"
- molecule: "O=c1[nH]c(=O)c2cccnc2[nH]1"
  T/C: "99 % of control"
- molecule: "COc1cc(/C=N/NC(N)=O)cc(OC)c1O"
  T/C: "99 % of control"
- molecule: "O=c1cc(-c2ccc(O)cc2)oc2cc(O)c(C3OC(CO)C(O)C(O)C3OC3OC(CO)C(O)C(O)C3O)c(O)c12 (stereo not drawn)"
  T/C: "105 % of control"

Prompt line: Which value of T/C has been reported for COc1ccc(/C(C#N)=C/c2cccs2)cc1 in the records?
Response line: 102 % of control

----------
# System: P388 leukemia ip, CD2F1 mice, survival T/C
# assay comment: NCI In Vivo Anticancer Drug Screen. Data for tumor model P388 Leukemia (intraperitoneal) in CD2F1 (CDF1) mice
# condition label: endpoint: median survival time; dose: 100.0 mg/kg/injection; schedule: Q04DX003 (ip); vehicle: Klucel (hydroxypropylcellulose) (HPC); higher = longer survival
Toxic doses and inconclusive results are not listed.
endpoint name: T/C

For orientation, consider the following solved cases.
- compound: "Cn1c(N)c(C(=O)Cc2ccccc2)c(=O)n(C)c1=O"
  T/C: "109 % of control"
- compound: "COc1ccc(C(=O)/C=C/c2ccc(OC)c(OC)c2OC)c(OC(C)=O)c1"
  T/C: "98 % of control"
- compound: "CCCCCn1cnc2cc(N3CCOCC3)c([N+](=O)[O-])cc2c1=O"
  T/C: "103 % of control"
- compound: "Cc1ccc2c(c1)-c1[nH]c3ccccc3c1CS2"
  T/C: "104 % of control"
- compound: "C/C=C/C=c1/[nH]c(=O)/c(=C\\C)[nH]c1=O"
  T/C: "98 % of control"

Prompt line: Which value of T/C has been reported for CS/C(=C1/C(=O)N(c2ccccc2)N=C1c1ccc(Br)cc1)N1CC1 in the records?
Response line: 95 % of control

Prompt line: Which value of T/C has been reported for C=C1C(=O)OC2CCCC(O)C12 (centres undefined) in the records?
Response line: 104 % of control

Prompt line: Which value of T/C has been reported for CC(C)CCNCC(N)C(=O)O (centres undefined) in the records?
Response line: 100 % of control

Prompt line: Which value of T/C has been reported for CCn1c2ccccc2c2ccc(N=Cc3ccccc3[N+](=O)[O-])cc21 in the records?
Response line: 98 % of control

Prompt line: Which value of T/C has been reported for CN(C)c1ccc(C(Nc2ccc(S(=O)(=O)Nc3ccccc3)cc2)c2ccc(N(C)C)cc2)cc1 in the records?
Response line: 105 % of control

Prompt line: Which value of T/C has been reported for Cc1cc(=O)n2c(-c3ccccc3)csc2n1 in the records?
Response line: 101 % of control

Prompt line: Which value of T/C has been reported for CCCNC(=O)/C(C)=C(\C)c1ccccc1 in the records?
Response line: 99 % of control

Prompt line: Which value of T/C has been reported for O=C(OC(=O)c1cccc(-c2ccccc2)c1)c1cccc(-c2ccccc2)c1 in the records?
Response line: 104 % of control

Prompt line: Which value of T/C has been reported for O=c1c2ccccc2c(-c2ccc(N(CCCl)CCCl)cc2)cn1CCCl in the records?
Response line: 107 % of control
